Cited source for all entries: patent US10174013B2

Tested On: Pim-2 (Homo sapiens (Human), UniProt Q9P1W9)
Sequence (Q9P1W9 whole entry): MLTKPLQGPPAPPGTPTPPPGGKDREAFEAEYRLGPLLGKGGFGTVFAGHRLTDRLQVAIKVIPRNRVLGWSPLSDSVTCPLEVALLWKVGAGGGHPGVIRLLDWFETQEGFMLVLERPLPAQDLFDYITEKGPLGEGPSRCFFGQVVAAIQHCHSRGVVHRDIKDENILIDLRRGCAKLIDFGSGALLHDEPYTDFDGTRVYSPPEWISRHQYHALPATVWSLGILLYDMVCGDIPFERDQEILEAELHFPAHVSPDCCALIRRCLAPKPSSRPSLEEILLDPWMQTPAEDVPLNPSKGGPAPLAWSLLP
Assay Overview: ADP-Glo Kinase Assay, Pim-2
Format: biochemical
Assay Conditions: 1 μM compound; read-out: Pim-2 % INH (1 μM)
Where a name gives a salt, the structure may show the parent alone.
Reported Metric: inhibition at 1 µM (%)

For orientation, consider the following solved cases.
[[record]]
compound = "CC(C)=CCn1c(N2CCNCC2)nc2c([N+](=O)[O-])c(Br)c(Br)cc21 [Example 2E, hydrochloride]"
observed_result = 63

[[record]]
compound = "CCn1c(NCC(O)CN)nc2c([N+](=O)[O-])c(Br)c(Br)cc21 (stereo not shown)"
observed_result = 34

[[record]]
compound = "CC(C)n1c(N2CCNCC2)nc2c([N+](=O)[O-])c(Br)c(Br)cc21 [Example 2A, hydrochloride]"
observed_result = 49


P: CCn1c(N2CC[C@H](N)C2)nc2c(C#N)c(Br)c(Br)cc21
Q: CCCn1c(N2CCCC(N)C2)nc2c([N+](=O)[O-])c(Br)c(Br)cc21 (stereo not shown)
R: CCn1c(N2CCNCC2)nc2c(C(F)(F)F)c(Br)c(Br)cc21
Sort these compounds on inhibition at 1 µM so the largest reading comes first. Put the labels in the order asked and list them. P, Q, R

A: CC(C)n1c(N2CCCC(O)C2)nc2c([N+](=O)[O-])c(Br)c(Br)cc21 (stereo not shown) [Example 22G]
B: CC(C)n1c(NCCOCCN)nc2c([N+](=O)[O-])c(Br)c(Br)cc21 [Example 22J]
Out of A and B , name the one with the higher inhibition at 1 µM. Pick one; state its label. A

###

Tested On: Pim-3 (Homo sapiens (Human), UniProt Q86V86)
Assay Overview: ADP-Glo Kinase Assay, Pim-3
Format: biochemical
Assay Conditions: 1 μM compound; read-out: Pim-3 % INH (1 μM)
Where a name gives a salt, the structure may show the parent alone.
Reported Metric: inhibition at 1 µM (%)

[[record]]
molecule = "CC(C)n1c(N2CCNCC2)nc2c(C#N)c(Br)c(Br)cc21 [Example 1BL]"
tested_on = "Pim-3 (Homo sapiens (Human), UniProt Q86V86)"
observed_result = 81

[[record]]
molecule = "CC(C)=CCn1c(N2CCNCC2)nc2c([N+](=O)[O-])c(Br)c(Br)cc21 [Example 2E, hydrochloride]"
tested_on = "Pim-3 (Homo sapiens (Human), UniProt Q86V86)"
observed_result = 56

[[record]]
molecule = "CCn1c(NCCCN)nc2c([N+](=O)[O-])c(Br)c(Br)cc21 [Example 1C]"
tested_on = "Pim-3 (Homo sapiens (Human), UniProt Q86V86)"
observed_result = 70

[[record]]
molecule = "CC(C)n1c(NCC(O)CN)nc2c([N+](=O)[O-])c(Br)c(Br)cc21 (centres unmarked) [Example 1W]"
tested_on = "Pim-3 (Homo sapiens (Human), UniProt Q86V86)"
observed_result = 92


I: CC(C)n1c(C2CCNCC2)nc2c([N+](=O)[O-])c(Br)c(Br)cc21 [Example 26A]
II: NCCCNc1nc2c([N+](=O)[O-])c(Br)c(Br)cc2[nH]1 [Example 1D]
III: CCn1c(NC2CCC(N)CC2)nc2c([N+](=O)[O-])c(Br)c(Br)cc21 (centres unmarked) [Example 1H]
Sort these molecules on inhibition at 1 µM so the largest reading comes first. Put the labels in the order asked and list them. I, II, III
(I: 90%, II: 57%, III: 38%)

###

System: MV4-11 xenograft
Assay Overview: MV4-11 xenograft in immunocompromised mice
Format: in vivo
Assay Conditions: MV4-11 xenograft, oral, 150 mg/Kg QD
Method: Several compounds of the present invention have been studied in a xenograft in mice, an in vivo tumor transplantation model used to investigate the factors involved in malignant transformation, invasion and metastasis, as well as to examine response to therapy. […] Next, compound 26A was evaluated in a xenograft study of acute myeloid leukemia (MV-4-11), alone or in a combinational treatment with Cytarabine in vivo (Table 3b; FIG. 6). […]
Reported Metric: ΔBW (body weight change) (%)
Write the answer as a number in %, unit excluded.

For orientation, consider the following solved cases.
[[record]]
compound = "CC(C)n1c(N2CC[C@H](N)C2)nc2c([N+](=O)[O-])c(Br)c(Br)cc21 [Example 1AZ]"
reported_metric = "ΔBW (body weight change)"
observed_result = "−0.2"

[[record]]
compound = "Cl.O=[N+]([O-])c1c(Br)c(Br)cc2c1nc(N1CCNCC1)n2C1CCCC1 [Example 2D]"
reported_metric = "ΔBW (body weight change)"
observed_result = "−3.5"

[[record]]
compound = "CC(C)n1c(N2CC[C@@H](N)C2)nc2c(C#N)c(Br)c(Br)cc21 [Example 1BI]"
reported_metric = "ΔBW (body weight change)"
observed_result = 3.8


Consider the compound shown here: CCn1c(N2CCC[C@H](N)C2)nc2c([N+](=O)[O-])c(Br)c(Br)cc21 [Example 1AH] What is its recorded ΔBW (body weight change)? 0.6

###

Test system: MOLM16 cells
Assay Overview: Growth inhibition, MTS assay, MOLM16
Type: cell-based, Human
Assay Conditions: Homo sapiens, MOLM16, 72 h, MTS cell viability, read-out: MOLM 16 ED50
Where a name gives a salt, the structure may show the parent alone.
Reported Metric: IC50 (nM)

For orientation, consider the following solved cases.
[[record]]
compound = "CC(C)n1c(NC2CCC(N)CC2)nc2c(C#N)c(Br)c(Br)cc21 (stereo not shown)"
reported_metric = "IC50"
units = "nM"
observed_result = 1100

[[record]]
compound = "CC(C)n1c(C2CCCC(N)C2)nc2c([N+](=O)[O-])c(Br)c(Br)cc21 (single isomer, unassigned) [Example 26B]"
reported_metric = "IC50"
units = "nM"
observed_result = 100

[[record]]
compound = "CC(C)n1c(N2CCNCC2)nc2c([N+](=O)[O-])c(Br)c(Br)cc21 [Example 2A, hydrochloride]"
reported_metric = "IC50"
units = "nM"
observed_result = 140


I: CCn1c(NC2CCC(N)CC2)nc2c(C#N)c(Br)c(Br)cc21 (stereo not shown)
II: CCn1c(N2CCC[C@H](N)C2)nc2c(C#N)c(Br)c(Br)cc21
III: CN[C@@H]1CCN(c2nc3c(C#N)c(Br)c(Br)cc3n2C(C)C)C1
Sort these compounds on IC50 so the largest reading comes first. Put the labels in the order asked and list them. I, III, II
(I: 1500 nM, III: 300 nM, II: 100 nM)

P: NCCn1c(N2CC[C@H](N)C2)nc2c([N+](=O)[O-])c(Br)c(Br)cc21
Q: NC(=O)Cn1c(N2CCNCC2)nc2c([N+](=O)[O-])c(Br)c(Br)cc21
R: CC(C)n1c(C2CCNCC2)nc2c([N+](=O)[O-])c(Br)c(Br)cc21 [Example 26A]
S: CC(C)n1c(N2CCNCC2)nc2c([N+](=O)[O-])c(C(F)(F)F)c(Br)cc21
Sort these compounds on IC50 so the largest reading comes first. Put the labels in the order asked and list them. S, Q, P, R
(S: 7290 nM, Q: 3100 nM, P: 1500 nM, R: 220 nM)

a: CC(C)n1c(N2CC[C@@H](N)C2)nc2c(C#N)c(Br)c(Br)cc21
b: CC(C)n1c(C2CCC(N)CC2)nc2c([N+](=O)[O-])c(Br)c(Br)cc21 (stereo not shown) [Example 26D]
c: CC(C)n1c(N2CCC(N)CC2)nc2c(C#N)c(Br)c(Br)cc21
d: NCCCn1c(N2CC[C@@H](N)C2)nc2c([N+](=O)[O-])c(Br)c(Br)cc21
e: CC(C)n1c(N2C[C@H]3C[C@@H]2CN3)nc2c([N+](=O)[O-])c(Br)c(Br)cc21 [Example 22AE]
Sort these compounds on IC50 so the largest reading comes first. Put the labels in the order asked and list them. e, d, b, c, a
(e: 2800 nM, d: 1900 nM, b: 1000 nM, c: 300 nM, a: 80 nM)

###

Tested On: UniProtKB Q12809
Sequence (Q12809 whole entry): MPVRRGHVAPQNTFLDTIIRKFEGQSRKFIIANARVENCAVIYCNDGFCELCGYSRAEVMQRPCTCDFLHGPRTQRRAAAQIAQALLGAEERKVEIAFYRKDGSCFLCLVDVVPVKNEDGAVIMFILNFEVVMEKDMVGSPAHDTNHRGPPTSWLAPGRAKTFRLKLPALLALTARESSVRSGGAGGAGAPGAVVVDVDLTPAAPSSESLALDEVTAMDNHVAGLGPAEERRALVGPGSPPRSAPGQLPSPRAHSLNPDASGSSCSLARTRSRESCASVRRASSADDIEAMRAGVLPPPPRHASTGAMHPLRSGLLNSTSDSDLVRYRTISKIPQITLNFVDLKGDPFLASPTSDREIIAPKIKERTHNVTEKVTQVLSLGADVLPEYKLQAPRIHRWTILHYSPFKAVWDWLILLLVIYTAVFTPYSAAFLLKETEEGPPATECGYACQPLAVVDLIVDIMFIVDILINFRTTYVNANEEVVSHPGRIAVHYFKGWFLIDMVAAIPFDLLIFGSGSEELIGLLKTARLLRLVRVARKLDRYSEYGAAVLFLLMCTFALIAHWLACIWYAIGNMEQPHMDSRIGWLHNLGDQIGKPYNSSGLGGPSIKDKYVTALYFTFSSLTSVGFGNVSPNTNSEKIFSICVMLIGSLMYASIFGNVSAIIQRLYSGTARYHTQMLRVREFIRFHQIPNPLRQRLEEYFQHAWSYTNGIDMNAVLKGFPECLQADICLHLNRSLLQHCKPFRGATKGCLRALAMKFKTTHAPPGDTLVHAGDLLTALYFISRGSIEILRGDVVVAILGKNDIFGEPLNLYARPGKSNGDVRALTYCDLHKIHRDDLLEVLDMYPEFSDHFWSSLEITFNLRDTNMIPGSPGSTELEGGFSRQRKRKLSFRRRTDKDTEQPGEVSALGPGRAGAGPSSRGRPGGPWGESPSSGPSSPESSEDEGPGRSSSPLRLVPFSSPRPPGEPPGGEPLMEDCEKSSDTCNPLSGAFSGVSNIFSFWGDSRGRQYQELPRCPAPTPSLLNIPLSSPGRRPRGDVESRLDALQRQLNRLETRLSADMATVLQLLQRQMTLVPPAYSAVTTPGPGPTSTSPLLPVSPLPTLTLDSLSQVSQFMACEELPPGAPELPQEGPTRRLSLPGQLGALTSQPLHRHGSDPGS
Assay Overview: hERG automated patch clamp assay (QPatch HT)
Reported Metric: pIC50
pIC50 (log units): -log10 of the concentration in mol/L.

For orientation, consider the following solved cases.
[[record]]
compound = "CC(C)n1c(N2CCC[C@H](N)C2)nc2c([N+](=O)[O-])c(Br)c(Br)cc21"
reported_metric = "pIC50"
observed_result = 5.74

[[record]]
compound = "CC(C)n1c(N[C@H]2CCNC2)nc2c([N+](=O)[O-])c(Br)c(Br)cc21"
reported_metric = "pIC50"
observed_result = 5.36

[[record]]
compound = "COC(CN)CNc1nc2c([N+](=O)[O-])c(Br)c(Br)cc2n1C(C)C (stereo not drawn) [Example 22AB]"
reported_metric = "pIC50"
observed_result = 5.69

[[record]]
compound = "CCCn1c(NCC(O)CN)nc2c([N+](=O)[O-])c(Br)c(Br)cc21 (stereo not drawn)"
reported_metric = "pIC50"
observed_result = 4.69

[[record]]
compound = "CCn1c(N2CCNCC2C)nc2c([N+](=O)[O-])c(Br)c(Br)cc21 (stereo not drawn)"
reported_metric = "pIC50"
observed_result = 5.85

[[record]]
compound = "CCCn1c(NCCCN)nc2c([N+](=O)[O-])c(Br)c(Br)cc21"
reported_metric = "pIC50"
observed_result = 5.73

[[record]]
compound = "CCn1c(N2CCNCC2)nc2c(C#N)c(Br)c(Br)cc21"
reported_metric = "pIC50"
observed_result = 6.11

[[record]]
compound = "CC(C)n1c(NCCOCCN)nc2c([N+](=O)[O-])c(Br)c(Br)cc21 [Example 22J]"
reported_metric = "pIC50"
observed_result = 4.92


Consider the compound shown here: CCCn1c(N2CCNCC2)nc2c([N+](=O)[O-])c(Br)c(Br)cc21 What is its recorded pIC50? 6.28
